- assay_remarks: Determination of log K by ITC (isothermal titration calorimetry)
- assay_conditions: binding constant of chelator and calcium ions, pH 10
Label 1 when Log K is strictly below 3; otherwise label 0.

* C[C@@H](C(=O)O)N(CC(=O)O)CC(=O)O | 1
* O=C(O)CN(CCN(CC(=O)O)CC(=O)O)CCN(CC(=O)O)CC(=O)O | 0
* CC(O)(P(=O)(O)O)P(=O)(O)O | 0
* O=C(O)CN(CCOCCOCCN(CC(=O)O)CC(=O)O)CC(=O)O | 0

Query compound follows.
Q: Criterion: Log K strictly below 3. Is it met by O=C(O)CN(CCN(CC(=O)O)CC(=O)O)CC(=O)O [EDTA, ethylene diamine tetraacetate] ?
A: 0
